read-out: Cyclin Dependent Kinase Inhibitor 1A (CDKN1A), CDKN1A (gene 1026); assay: LTEA_HepaRG_CDKN1A: Life Technologies and Expression Analysis (LTEA) Assay for Cyclin Dependent Kinase Inhibitor 1A (CDKN1A) using HepaRG (AID 2283450); details: mRNA level, 48 h; actives raise or lower the signal
Active and inactive are the calls of the source. How the source made its calls: active means hit-call score of the fitted dose curve at least 0.9, where 1 is the maximum; inactive means score below 0.9.
Select the correct class. Options are active, inactive and nothing else.

Ask: For `CCCCCCCCCCCC(=O)OC` , what call appears in the results of this test?
Result: inactive

Ask: For `CCCCCC(=O)O` , what call appears in the results of this test?
Result: inactive

Ask: For `OC[C@@H](O)[C@@H](O)[C@H](O)[C@H](O)CO` , what call appears in the results of this test?
Result: inactive

Ask: For `CCCCc1ccc2c(n1)[C@@H](c1ccc(OC)cc1C[C@H](C)C(=O)O)[C@H](C(=O)O)[C@H]2c1ccc2c(c1)OCO2` , what call appears in the results of this test?
Result: inactive

Ask: For `CCCCCCOCCO` , what call appears in the results of this test?
Result: inactive

Ask: For `COc1cc(C=O)ccc1O` , what call appears in the results of this test?
Result: inactive

Ask: For `CCCCCCC(=O)OCC` , what call appears in the results of this test?
Result: inactive

Ask: For `O=C(N[C@@H](Cc1ccccc1)[C@@H](O)C(=O)N1C[C@@H](O)[C@@H](O)C1)c1cc2cc(Cl)ccc2[nH]1` , what call appears in the results of this test?
Result: active

Ask: For `Nc1ccccc1N` , what call appears in the results of this test?
Result: active

Ask: For `Cc1cc(=O)[nH]c(=S)[nH]1` , what call appears in the results of this test?
Result: inactive

Ask: For `O=C(O)Cc1ccccc1Nc1c(Cl)cccc1Cl` , what call appears in the results of this test?
Result: inactive

Ask: For `COc1ccc(S(=O)(=O)N2C(=O)[C@@](c3ccccc3OC)(N3C[C@H](O)C[C@H]3C(=O)N(C)C)c3cc(Cl)ccc32)c(OC)c1` , what call appears in the results of this test?
Result: active

Data origin: PubChem BioAssay (EPA / NIEHS)
